# test name: Photophysical properties (excitation/emission wavelength, absolute quantum yield, fluorescence intensity in PBS)
# Format: physicochemical
Recorded Ex (excitation wavelength) for the following compounds
Please append the unit to your numeric answer.

compound	experimental value
Cc1ccc(C(=O)NC(C)(C)CC(C)(C)C)cc1C1=C2C=CC(=[N+](C)C)C=C2[Si](C)(C)c2cc(N(C)C)ccc21 [SiR-Mito 7]	650 nm
CCNC(=O)c1ccc(C)c(C2=C3C=CC(=[N+](C)C)C=C3[Si](C)(C)c3cc(N(C)C)ccc32)c1 [SiR-Mito 2]	662 nm
CCCCCCC(C)NC(=O)c1ccc(C)c(C2=C3C=CC(=[N+](C)C)C=C3[Si](C)(C)c3cc(N(C)C)ccc32)c1 (stereo not shown) [SiR-Mito 10]	654 nm

Attention now shifts to the item below.
Given the compound CCCCNC(=O)c1ccc(C)c(C2=C3C=CC(=[N+](C)C)C=C3[Si](C)(C)c3cc(N(C)C)ccc32)c1 [SiR-Mito 3] , what is its reported Ex (excitation wavelength)?
652 nm

* * *

# test name: Photophysical properties (excitation/emission wavelength, absolute quantum yield, fluorescence intensity in PBS)
# Format: physicochemical
# condition notes: absolute quantum yield
# Experimental: All reactions were carried out under an atmosphere of nitrogen or argon in air-dried glassware with magnetic stirring. Air- and/or moisture-sensitive liquids were transferred with syringe. […] Column chromatography was carried out as “Flash Chromatography” using Biotage MPLC machine. ^1H NMR and ^13C NMR data were recorded on an JEOL ECZ-600R Magnetic Resonance System (600 MHz) in Ajou University. […] Absolute quantum yield was measured by QE-2000 (Otsuka Electronics).
Φ (quantum yield) under 0.3 gets class 1, anything at or over 0.3 gets class 0.

These solved cases illustrate the format of a correct answer.
compound	classification
CCCCNC(=O)c1ccc(C)c(C2=C3C=CC(=[N+](C)C)C=C3[Si](C)(C)c3cc(N(C)C)ccc32)c1 [SiR-Mito 3]	class 1
Cc1ccc(C(=O)NCCC2CCCCC2)cc1C1=C2C=CC(=[N+](C)C)C=C2[Si](C)(C)c2cc(N(C)C)ccc21 [SiR-Mito 9]	class 1
CCNC(=O)c1ccc(C)c(C2=C3C=CC(=[N+](C)C)C=C3[Si](C)(C)c3cc(N(C)C)ccc32)c1 [SiR-Mito 2]	class 0
Cc1ccc(C(=O)NC(C)(C)CC(C)(C)C)cc1C1=C2C=CC(=[N+](C)C)C=C2[Si](C)(C)c2cc(N(C)C)ccc21 [SiR-Mito 7]	class 1
Cc1ccc(C(=O)NCCO)cc1C1=C2C=CC(=[N+](C)C)C=C2[Si](C)(C)c2cc(N(C)C)ccc21 [SiR-Mito 1]	class 0

Next up:
Please state whether Φ (quantum yield) is below 0.3 for CCCCCCC(C)NC(=O)c1ccc(C)c(C2=C3C=CC(=[N+](C)C)C=C3[Si](C)(C)c3cc(N(C)C)ccc32)c1 (centres unmarked) [SiR-Mito 10]
class 1

* * *

We begin with a simple list: items and their reported Ex (excitation wavelength).
# test name: Photophysical properties (excitation/emission wavelength, absolute quantum yield, fluorescence intensity in PBS)
# Type: physicochemical
# output: bare number, implied unit nm

structure as smiles	reported metric	experimental value
Cc1ccc(C(=O)NCCc2ccccc2)cc1C1=C2C=CC(=[N+](C)C)C=C2[Si](C)(C)c2cc(N(C)C)ccc21	Ex (excitation wavelength)	651
Cc1ccc(C(=O)NCc2ccccc2)cc1C1=C2C=CC(=[N+](C)C)C=C2[Si](C)(C)c2cc(N(C)C)ccc21	Ex (excitation wavelength)	651
Cc1ccc(C(=O)NCCO)cc1C1=C2C=CC(=[N+](C)C)C=C2[Si](C)(C)c2cc(N(C)C)ccc21	Ex (excitation wavelength)	661

Proceed to the following item.
Give the measured Ex (excitation wavelength) of Cc1ccc(C(=O)NCCC2CCCCC2)cc1C1=C2C=CC(=[N+](C)C)C=C2[Si](C)(C)c2cc(N(C)C)ccc21 .
652

* * *

Attribute: Em (emission wavelength)
# test name: Photophysical properties (excitation/emission wavelength, absolute quantum yield, fluorescence intensity in PBS)
# Assay type: physicochemical
Record the value in nm, omitting the unit from your answer.

Check out these entries, answers already filled in.
compound	experimental value
Cc1ccc(C(=O)NCCC2CCCCC2)cc1C1=C2C=CC(=[N+](C)C)C=C2[Si](C)(C)c2cc(N(C)C)ccc21 [SiR-Mito 9]	666
Cc1ccc(C(=O)NC(C)(C)CC(C)(C)C)cc1C1=C2C=CC(=[N+](C)C)C=C2[Si](C)(C)c2cc(N(C)C)ccc21 [SiR-Mito 7]	667
Cc1ccc(C(=O)NCCc2ccccc2)cc1C1=C2C=CC(=[N+](C)C)C=C2[Si](C)(C)c2cc(N(C)C)ccc21 [SiR-Mito 6]	668
CCCCCCC(C)NC(=O)c1ccc(C)c(C2=C3C=CC(=[N+](C)C)C=C3[Si](C)(C)c3cc(N(C)C)ccc32)c1 (centres unmarked) [SiR-Mito 10]	667
Cc1ccc(C(=O)NCCO)cc1C1=C2C=CC(=[N+](C)C)C=C2[Si](C)(C)c2cc(N(C)C)ccc21 [SiR-Mito 1]	668
Cc1ccc(C(=O)NCc2ccccc2)cc1C1=C2C=CC(=[N+](C)C)C=C2[Si](C)(C)c2cc(N(C)C)ccc21 [SiR-Mito 4]	666

Which measured Em (emission wavelength) value corresponds to CCNC(=O)c1ccc(C)c(C2=C3C=CC(=[N+](C)C)C=C3[Si](C)(C)c3cc(N(C)C)ccc32)c1 [SiR-Mito 2] ?
668

Please give the measured Em (emission wavelength) for this compound: CCCCNC(=O)c1ccc(C)c(C2=C3C=CC(=[N+](C)C)C=C3[Si](C)(C)c3cc(N(C)C)ccc32)c1 [SiR-Mito 3]
665
